# TEST_DETAILS: NCI Yeast Anticancer Drug Screen. Data for the sgs1 mgt1 strain (AID 161);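 further: 0% = growth of cultures given vehicle only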
# EXPERIMENTAL_CONDITIONS: S. cerevisiae sgs1 mgt1 strain, at 50.0 µM (retest, dose inferred, filed as 5.0), hits give high values
About 79,000 compounds went through this panel and 15% of them were active in at least one assay; those are over-represented in the sample as a whole.
MEASURED_PARAMETER: growth inhibition (%)
Express it in %; write the number only.

Entry CCCCN(CCCC)CC(O)c1ccc(CCc2ccccc2)cc1 (centres undefined) , growth inhibition reported as 99

Short answer for O=C1C2C3C=CC(C3)C2C(=O)C2C3C=CC(C3)C12 (centres undefined) : growth inhibition was 99

The compound identified as CCCCCCCCCCCCCCCCC/C=N\NC(=O)CCCC(=O)N/N=C/CCCCCCCCCCCCCCCCC registered its growth inhibition at -3

// field: growth inhibition; key: O=C(/C=C/c1cccc2ccccc12)c1cccc([N+](=O)[O-])c1 ; value = 2

Per the records, this compound ( O=C(C(=O)c1ccc(Cc2ccc(C(=O)C(=O)c3ccccc3)cc2)cc1)c1ccccc1 ) has growth inhibition equal to 1

Record O=[N+]([O-])c1ccc2nc(-c3ccc(Cl)cc3)[nH]c2c1 . Reported growth inhibition: 89

Entry under test: Cc1cc(Cl)nc2ccc(Cc3ccc4nc(Cl)cc(C)c4c3)cc12 . Its growth inhibition was 7

Lab note: CCCCCCCCCCCCn1cnc2ncnc(Cl)c21 gave growth inhibition of 68

Recorded growth inhibition (compound CCOC(=O)[C@@H](F)[C@H](Br)C(=O)OCC ): 100

Briefly, growth inhibition measured for CCOC1(c2ccccc2)c2ccccc2S(=O)(=O)N1C (centres undefined) : 33

The reported growth inhibition of the compound O=C(Nc1ccc(C2=NCCN2)cc1)c1ccc(C(=O)Nc2ccc(C3=NCCN3)cc2)c(Cl)c1 was 99

Noted for ON(Cc1ccccc1)C(=S)c1ccccc1 : its growth inhibition reads 98

The reported growth inhibition of the compound O=S1Nc2ccccc2S1 (centres undefined) was 42

GET /value?item= COc1cc(C(=O)C2OC2c2ccc(Cl)cc2)c([N+](=O)[O-])cc1OC (centres undefined) &field=growth inhibition returns 61

For record Cc1cc(C)[nH]c(=S)n1.[Pt] the listed growth inhibition is -5

Consider COCC(O)Cn1cc([N+](=O)[O-])nc1C (centres undefined) . Its measured growth inhibition is 2

Memo: Cc1ccc(-[n+]2cc([O-])on2)cc1 , reported growth inhibition: 0

Lab note: measured growth inhibition of O=C(N/C(=C\c1ccc(Br)cc1)c1nc2ccccc2[nH]1)c1ccccc1 was 60

// growth inhibition value for Cc1nc2c(cnn2-c2ccccc2)c(=O)o1 : -62

For record CCCCCCCCCCCCCCC(O)C[N+](C)(CCO)CCO (centres undefined) the listed growth inhibition is 99

The recorded growth inhibition for entry CCN(CC)CCSCCCNc1cc(OC)cc2cccnc12 equals 54

Form field growth inhibition, entry Oc1c(C(O)(c2ccccc2)c2ccc3ccccc3c2O)ccc2ccccc12 : 76

growth inhibition measured on Clc1ccc2nc3c(c(N4CCCCC4)c2c1)CCCC3 = 99

The compound listed as O=C1c2ccccc2C(=O)c2c1ccc(C(=O)O)c2-c1ccc2ccccc2c1 shows growth inhibition equal to 98

###

# TEST_DETAILS: NCI Yeast Anticancer Drug Screen. Data for the rad50 strain (AID 155);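 further: 0% = growth of vehicle-only cultures of the same strain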
# EXPERIMENTAL_CONDITIONS: S. cerevisiae rad50 strain growth inhibition; at 50.0 µM
Compounds without any hit were thinned out: in the full panel of roughly 79,000, 15% have a hit. Active and inactive are the calls of the source. No stated cut-off is given here; in the data, active means growth inhibition above about 70%; inactive means the rest.
One label from this list, please: active, inactive

**Q:** Per the assay record, what outcome was assigned to CCOC(=O)C(F)C(Br)C(=O)OCC (centres undefined) ?
**A:** active

**Q:** Could you check what this test reported for COC(=O)/C(C(C)=O)=C(\OC(C)=O)c1ccc(OC)c(OC)c1 ?
**A:** active

**Q:** Which outcome was entered for the compound O=C(C=P(c1ccccc1)(c1ccccc1)c1ccccc1)c1ccccc1-c1ccccc1C(=O)C=P(c1ccccc1)(c1ccccc1)c1ccccc1 in this test?
**A:** active

**Q:** Assay outcome for O=C(O)c1ccc2ccccc2c1C(=O)c1cccc2ccccc12 : what was it?
**A:** active

**Q:** Short answer needed: outcome of this test for Cc1nc(N)nn1C ?
**A:** inactive

**Q:** For COc1ccc(CCCC(=O)O)c2c(OC)cccc12 , which call appears in the assay record?
**A:** active

**Q:** Given CCCCCCCN(CCCCCCC)CC(O)Cc1cc2c(c3ccccc13)CCCC2 (centres undefined) , state the outcome it received in this test.
**A:** active

**Q:** Would you mind telling me which call this test gave COC(=O)c1ccccc1CC1Cc2cccc(C)c2C1=O (centres undefined) ?
**A:** inactive

**Q:** Call for entry CCc1ccccc1NC(=O)C(=O)C(C#N)c1c(Cl)cccc1Cl (centres undefined) :
**A:** inactive

**Q:** Which outcome was entered for the compound CCOC(=O)C(=O)CC1=Nc2ccccc2SC(c2cccc(C)c2)C1 (centres undefined) in this test?
**A:** active

**Q:** So what was the verdict on Cc1ccc(/C=N\NC(=S)N/N=C/c2ccc(C)cc2)cc1 in this test?
**A:** inactive

**Q:** Dear colleague, could you share the recorded outcome for Nc1ccc(CSc2ccc(Cl)cc2)cc1Cl when you have a moment?
**A:** inactive

**Q:** I'd appreciate the recorded outcome for CCC(=O)C(CC)(c1ccc(OC(C)=O)cc1)c1ccc(OC(C)=O)cc1 from this test.
**A:** inactive

**Q:** Given O=C1OC(CCl)CC12CC(CCl)OC2=O (centres undefined) , state the outcome it received in this test.
**A:** active

**Q:** Could you kindly confirm the outcome this assay logged for CCN(CC)CCCC(C)Nc1cc(C)nc2c1ccc1c2ccc2c(NC(C)CCCN(CC)CC)cc(C)nc21 (centres undefined) ?
**A:** inactive

**Q:** Please indicate how the test categorized CC(=O)OC1CCCCCCCCCCC12OCCO2 (centres undefined) .
**A:** inactive

**Q:** Kindly provide the recorded test outcome for the following compound: Cc1cccc2c1Oc1cc(Cl)ccc1C2NC(=O)CCN1CCN(CCO)CC1 (centres undefined)
**A:** inactive

**Q:** Recorded test call requested for CC(C)C1=CC23CCC4C(C)(C(=O)O)CCCC4(C)C2CC1CC3C#N (centres undefined)
**A:** active

**Q:** What classification did COc1ccc2c(c1)CC[C@@H]1[C@@H]2CC[C@]2(C)/C(=N/OCCN3CCCC3)CC[C@@H]12 end up with in this test?
**A:** active

**Q:** Test call for this compound, please: Cc1ccc(C(=O)CC(N)C(=O)O)cc1 (centres undefined)
**A:** inactive

**Q:** What did this assay record as the result for O=[N+]([O-])c1cc(Cl)cc2c1nc(NCCO)c1ccccc12 ?
**A:** active

**Q:** # fetch the recorded call for O=S(=O)(Nc1ccccn1)c1ccc(N=Cc2c3ccccc3nc3cc(Cl)ccc23)cc1 here
**A:** active

**Q:** Per the assay record, what outcome was assigned to COC(CC[P+](c1ccccc1)(c1ccccc1)c1ccccc1)(C(=O)c1ccccc1)c1ccccc1 (centres undefined) ?
**A:** active

**Q:** Tell me the assay call for CCCCCN(CCCCC)CCNc1ccc(C)c2sc3ccccc3c(=O)c12 please.
**A:** active

**Q:** Would you mind telling me which call this test gave COc1ccc(Cc2nc3ccccc3s2)cc1OC ?
**A:** active

**Q:** What outcome does the record of this test show for C/C(=N/NC(N)=O)c1ccc(Cl)s1 ?
**A:** inactive

**Q:** Each compound tested received a call. Report the one for CCCCCCCCCCCCCCCCOCC(Cl)COP(=O)(O)OP(=O)(O)OCC1OC(n2cc(C)c(=O)[nH]c2=O)CC1O (centres undefined) .
**A:** active

**Q:** Can you look up the reported call for Oc1ccc(N=Nc2cc(Cl)ccc2Cl)cc1 for me?
**A:** active

**Q:** Query: recorded result category for COc1ccc(N(C)Sc2ccccc2)cc1 in this test
**A:** active

**Q:** So what was the verdict on CC(=O)Nc1cc(F)c2c(c1)Cc1ccccc1-2 in this test?
**A:** inactive

**Q:** What outcome does the record of this test show for CC(=O)c1ccc2c(c1)CC1(C2)Cc2cc3c(c(C(=O)O)c2C1)CCC3 (centres undefined) ?
**A:** active

**Q:** In this assay, the call recorded for CCCCCCCCCCCCCCCC[N+](C)(C)c1ccccc1 was what?
**A:** active

**Q:** Assay result, entry COC1/C=C/OC2(C)Oc3c(C)c(O)c4c(c3C2=O)C(=O)c2cnc(nc2C4=O)/C(C)=C\C=C\C(C)C(O)C(C)C(O)C(C)C(OC(C)=O)C1C (centres undefined) — outcome?
**A:** inactive

**Q:** Which outcome was assigned to COC(=O)N/N=C(\c1ccc(O)cc1)C(C)C1(O)C(=O)Nc2ccccc21 (centres undefined) in this test?
**A:** inactive

**Q:** Look up the recorded call for Cc1ccc(/[N+]([O-])=C/c2ccccc2)cc1 in this test.
**A:** active

**Q:** Short answer needed: outcome of this test for CSc1nc(=Nc2ccccc2)sn1-c1ccccc1 ?
**A:** active

**Q:** Answer briefly: the call reported for CNC(=O)OC1/C(C)=C\C(C)C(O)C(OC)CC(C)CC2=C(OC)C(=O)C=C(C2=O)N(C)C(=O)/C(C)=C/C=C\C1OC (centres undefined) in this assay.
**A:** inactive

**Q:** Status in this test for Cc1ccc(S(=O)(=O)Nc2ccc(C)cc2C)cc1 ?
**A:** active

**Q:** Given CCN(CC)CCOC(=O)C1CCCCC1C(=O)C1CCCCC1 (centres undefined) , state the outcome it received in this test.
**A:** inactive

**Q:** Fill in: this test's call for O=C(Cc1nc2ccccc2s1)C(=O)Nc1ccc(Cl)cc1 is ___
**A:** inactive

**Q:** Tell me the recorded outcome of this test for CCN1C2=NCCN2S(=O)(=O)c2ccccc21 .
**A:** inactive

**Q:** Write down the call the test reported for this compound. Item: COc1cccc2c1C(=O)c1c(O)c3c(c(O)c1C2=O)C[C@@](O)(C(=O)CO)C[C@@H]3OC1CC(N(C)C)C(O)C(C)O1 (some centres undefined)
**A:** active

**Q:** For Nc1ccccc1-c1nc2c(ccc3ccccc32)[nH]1 , what call appears in the results of this test?
**A:** active

**Q:** Can you look up the reported call for Brc1ccc(-c2c3ccccc3cc3c2ccc2ccccc23)cc1 for me?
**A:** inactive
